These entries and their values trace back to ChEMBL document CHEMBL1201862.

System: SF-268
protocol_notes: NCI tumour cell line growth inhibition, 48 h
Activity calls are given as the source filed them. Cut-off read from the data, not from the text of the source: active = GI50 up to about 1.1 µM and inactive = higher.
Classes used: active, inactive

{"compound": "C=CCn1cnc2c(O)nc(Nc3ccccc3)nc21", "classification": "inactive"}
{"compound": "COc1ccc2c(c1)c(=O)c1c(NCCCN(C)C)ccc3ncn2c31", "classification": "inactive"}
{"compound": "CC12CCC(C(Br)(Br)C1=O)C2(C)C (stereo unspecified)", "classification": "active"}
{"compound": "O=S(=O)(SC1=NCCN1)c1ccc2ccccc2c1", "classification": "inactive"}
{"compound": "Nc1c2c(nc3ccccc13)CCCCCC2", "classification": "inactive"}
{"compound": "Cc1ccc(C2(c3ccc(C)cc3)SC(=C(C#N)C#N)c3ccccc32)cc1", "classification": "inactive"}
{"compound": "COc1ccc(/C=C(\\Cl)c2ccc(OC)cc2)cc1", "classification": "inactive"}
{"compound": "CCOC(C)OC1CC(n2cc(C)c(=O)[nH]c2=O)OC1CO (stereo unspecified)", "classification": "inactive"}
{"compound": "CNC(=O)OC1/C(C)=C\\C(C)C(O)C(OC)CC(C)CC2=C(OC)C(=O)C=C(C2=O)N(C)C(=O)/C(C)=C/C=C\\C1OC (stereo unspecified)", "classification": "inactive"}
{"compound": "COc1cccc(N2C(=O)C3c4[nH]c5ccc(C)cc5c4C4CCC(C(C)(C)C)CC4C3C2=O)c1 (stereo unspecified)", "classification": "inactive"}
{"compound": "Cc1c2ccccc2c(C)n2c1nc1cc(Cl)c(Cl)cc12", "classification": "inactive"}
